# target-desc: Tyrosine-protein kinase BTK (Homo sapiens)
# Sequence (Q06187 whole entry): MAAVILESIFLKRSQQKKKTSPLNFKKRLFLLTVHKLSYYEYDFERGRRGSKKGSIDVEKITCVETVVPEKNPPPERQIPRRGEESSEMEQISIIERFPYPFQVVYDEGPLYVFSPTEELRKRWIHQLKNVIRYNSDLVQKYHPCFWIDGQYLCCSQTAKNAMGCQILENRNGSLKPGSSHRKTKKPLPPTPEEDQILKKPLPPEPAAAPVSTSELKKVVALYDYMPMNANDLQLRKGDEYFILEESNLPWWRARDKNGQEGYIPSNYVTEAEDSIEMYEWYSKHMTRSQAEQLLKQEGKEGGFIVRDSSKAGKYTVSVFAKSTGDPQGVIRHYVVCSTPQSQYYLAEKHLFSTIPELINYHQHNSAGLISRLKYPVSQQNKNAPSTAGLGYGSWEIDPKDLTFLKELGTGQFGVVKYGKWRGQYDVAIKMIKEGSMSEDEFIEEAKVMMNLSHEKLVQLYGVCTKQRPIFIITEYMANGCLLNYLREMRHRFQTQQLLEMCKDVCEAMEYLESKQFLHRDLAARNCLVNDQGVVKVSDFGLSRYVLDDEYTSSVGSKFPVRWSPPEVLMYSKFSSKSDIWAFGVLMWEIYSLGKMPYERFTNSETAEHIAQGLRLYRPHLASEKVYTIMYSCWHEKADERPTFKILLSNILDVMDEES
# assay-details: Inhibition of full length human His-tagged BTK expressed in baculovirus expression system using GEEPLYWSFPAKKK-NH2 as substrate pretreated for 15 mins followed by ATP addition measured after 10 mins by topcount scintillation counting analysis
property-measured: pEC50
Give bare numbers, as −log10 of the molar value.

Q. Consider the compound shown here: `C=CC(=O)Nc1cccc(CNc2cc(Nc3ccccc3)ncc2C(N)=O)c1` What is its recorded pEC50?
A. 5.18

###

pIC50: −log10 of the molar value.
// each record: one item and its pIC50 for Non-receptor tyrosine-protein kinase TYK2 (Homo sapiens, UniProt P29597)

{"sample-smiles": "C=CC(=O)Nc1cccc(CNc2c(C(N)=O)cnn3cccc23)c1", "experimental-result": "< 5.70"}

Give measured pIC50 for every item shown.
1. C=CC(=O)Nc1cccc(CNc2cc(Nc3ccccc3)ncc2C(N)=O)c1
2. C/C=C/C(=O)Nc1cccc(CNc2c(C(N)=O)cnn3cccc23)c1

A.
["< 5.30", "< 5.70"]
